- SYSTEM: p110β (Homo sapiens, UniProt P42338)
- Sequence (P42338 whole entry, species assumed, canonical isoform): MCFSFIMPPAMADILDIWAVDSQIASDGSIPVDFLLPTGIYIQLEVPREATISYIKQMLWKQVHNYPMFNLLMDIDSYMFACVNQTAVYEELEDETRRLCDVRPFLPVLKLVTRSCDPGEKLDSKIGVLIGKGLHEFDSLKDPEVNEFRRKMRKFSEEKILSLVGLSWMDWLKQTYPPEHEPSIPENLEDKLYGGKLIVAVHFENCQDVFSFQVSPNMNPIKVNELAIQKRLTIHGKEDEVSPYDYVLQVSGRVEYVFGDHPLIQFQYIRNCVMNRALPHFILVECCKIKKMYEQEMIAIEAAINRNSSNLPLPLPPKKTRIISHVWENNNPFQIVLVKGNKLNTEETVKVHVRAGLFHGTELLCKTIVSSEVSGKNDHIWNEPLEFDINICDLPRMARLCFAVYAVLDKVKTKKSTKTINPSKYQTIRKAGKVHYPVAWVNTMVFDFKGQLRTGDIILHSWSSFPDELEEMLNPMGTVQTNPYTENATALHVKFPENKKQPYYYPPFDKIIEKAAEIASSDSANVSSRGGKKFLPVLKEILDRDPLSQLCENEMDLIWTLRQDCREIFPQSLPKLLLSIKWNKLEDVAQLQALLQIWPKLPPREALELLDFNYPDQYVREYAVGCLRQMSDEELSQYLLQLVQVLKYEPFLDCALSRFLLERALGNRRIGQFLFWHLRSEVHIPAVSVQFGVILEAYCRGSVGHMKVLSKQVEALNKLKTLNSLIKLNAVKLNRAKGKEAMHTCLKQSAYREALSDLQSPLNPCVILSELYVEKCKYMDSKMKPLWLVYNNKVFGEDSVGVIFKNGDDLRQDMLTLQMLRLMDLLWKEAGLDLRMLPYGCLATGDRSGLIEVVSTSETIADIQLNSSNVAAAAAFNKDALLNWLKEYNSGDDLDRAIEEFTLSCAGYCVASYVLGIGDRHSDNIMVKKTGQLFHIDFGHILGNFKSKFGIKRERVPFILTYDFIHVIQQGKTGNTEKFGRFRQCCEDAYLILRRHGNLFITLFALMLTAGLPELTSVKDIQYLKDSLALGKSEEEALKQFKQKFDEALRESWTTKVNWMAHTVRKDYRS
- Sequence (P27986 whole entry partner, species assumed, canonical isoform): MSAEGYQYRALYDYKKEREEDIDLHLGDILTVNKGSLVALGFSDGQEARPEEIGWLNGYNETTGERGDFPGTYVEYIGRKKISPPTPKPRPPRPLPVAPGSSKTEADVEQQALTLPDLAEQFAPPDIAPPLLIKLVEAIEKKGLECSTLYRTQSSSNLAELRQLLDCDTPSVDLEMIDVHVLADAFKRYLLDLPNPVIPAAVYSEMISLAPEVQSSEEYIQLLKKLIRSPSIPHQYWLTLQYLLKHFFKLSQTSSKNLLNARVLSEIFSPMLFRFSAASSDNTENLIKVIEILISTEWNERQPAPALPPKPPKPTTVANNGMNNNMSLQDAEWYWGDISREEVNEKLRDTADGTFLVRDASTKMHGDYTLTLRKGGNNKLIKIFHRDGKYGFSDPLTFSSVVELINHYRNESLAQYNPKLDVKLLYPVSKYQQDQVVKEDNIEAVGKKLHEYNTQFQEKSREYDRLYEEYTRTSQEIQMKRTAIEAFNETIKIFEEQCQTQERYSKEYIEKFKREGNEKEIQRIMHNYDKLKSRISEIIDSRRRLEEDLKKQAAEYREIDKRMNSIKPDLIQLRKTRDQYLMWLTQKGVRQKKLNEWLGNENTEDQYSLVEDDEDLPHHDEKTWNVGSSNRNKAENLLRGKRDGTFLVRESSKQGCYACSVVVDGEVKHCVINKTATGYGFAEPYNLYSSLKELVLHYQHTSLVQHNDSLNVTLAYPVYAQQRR
- RUN_DESCRIPTION: PI3K isoform inhibition, Ki and IC50
READOUT_NAME: pIC50
FYI, pIC50 means -log10 of a concentration in mol per litre.

Request: Recorded pIC50 for Fc1ccc2[nH]ccc2c1-c1nc(N2CCOCC2)c2sc(CN3CCN(CC4CC4)CC3)cc2n1 , please?
Response: 6.22

* * *

- SYSTEM: p110γ (Homo sapiens, UniProt P48736)
- Sequence (P48736 whole entry, species assumed, canonical isoform): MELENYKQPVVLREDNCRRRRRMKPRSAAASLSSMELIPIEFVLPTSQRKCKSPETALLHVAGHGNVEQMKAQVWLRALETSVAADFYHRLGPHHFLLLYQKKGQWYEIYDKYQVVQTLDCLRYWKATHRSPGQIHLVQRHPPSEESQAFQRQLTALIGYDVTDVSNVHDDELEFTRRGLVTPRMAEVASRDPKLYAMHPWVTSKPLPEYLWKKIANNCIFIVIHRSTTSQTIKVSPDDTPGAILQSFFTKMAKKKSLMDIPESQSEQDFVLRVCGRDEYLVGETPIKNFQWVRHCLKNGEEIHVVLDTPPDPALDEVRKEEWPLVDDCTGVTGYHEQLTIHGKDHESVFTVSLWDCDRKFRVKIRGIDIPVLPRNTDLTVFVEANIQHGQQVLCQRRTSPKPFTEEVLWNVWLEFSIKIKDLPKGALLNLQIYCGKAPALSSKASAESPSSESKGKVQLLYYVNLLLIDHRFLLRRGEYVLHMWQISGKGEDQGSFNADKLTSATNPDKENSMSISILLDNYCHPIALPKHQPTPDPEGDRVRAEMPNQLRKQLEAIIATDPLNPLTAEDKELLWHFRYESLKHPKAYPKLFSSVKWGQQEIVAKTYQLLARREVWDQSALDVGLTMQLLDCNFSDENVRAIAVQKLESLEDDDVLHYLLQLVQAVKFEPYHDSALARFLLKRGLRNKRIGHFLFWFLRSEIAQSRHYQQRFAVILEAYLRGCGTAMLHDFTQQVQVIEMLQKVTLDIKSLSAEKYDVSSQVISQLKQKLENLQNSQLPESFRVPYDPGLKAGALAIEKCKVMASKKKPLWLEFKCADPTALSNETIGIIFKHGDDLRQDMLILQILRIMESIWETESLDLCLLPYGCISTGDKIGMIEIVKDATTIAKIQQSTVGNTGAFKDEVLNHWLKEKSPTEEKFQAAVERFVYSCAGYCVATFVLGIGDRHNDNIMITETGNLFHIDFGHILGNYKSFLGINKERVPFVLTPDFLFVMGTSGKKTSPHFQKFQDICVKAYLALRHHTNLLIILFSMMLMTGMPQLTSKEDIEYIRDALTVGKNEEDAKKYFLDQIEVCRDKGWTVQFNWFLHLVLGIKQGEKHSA
- RUN_DESCRIPTION: PI3K isoform inhibition, Ki and IC50
READOUT_NAME: pKi
Formally, pKi is defined as -log10 of the concentration c, with c in mol/L.

Request: Field request: pKi | item: Fc1ccc2[nH]ccc2c1-c1nc(N2CCOCC2)c2sc(CN3CCN(CC4CC4)CC3)cc2n1
Response: 6.03

The measurements presented in this section are drawn from paper PMC4501086.
